// reported TGI per item
tested on: MALME-3M melanoma; experiment: NCI tumour cell line growth inhibition, 48 h

| Molecule | TGI |
| --- | --- |
| CC(=O)NC(C)c1ccc(N=NN2CCCC2)cc1 (stereo not given) | > 100 µM |
| Clc1ccc(C(c2ccc(Cl)cc2)N2CCNCC2)cc1 | 3.12 µM |
| CC1(C)OCC(COC(=O)NCn2cc(-c3ccccc3)nn2)O1 (stereo not given) | > 100 µM |
| N#Cc1ccc(Nc2cnc3ccc(N)cc3n2)cc1 | > 100 µM |
| Cc1cc2c(cc1-c1cc3c(cc1C)C(C(C)C)=C(O)C(=O)/C3=C\Nc1c(C)n(C)n(-c3ccccc3)c1=O)/C(=C/Nc1c(C)n(C)n(-c3ccccc3)c1=O)C(=O)C(O)=C2C(C)C | > 100 µM |
| COc1ccc(-c2nnc(-c3ccncc3)o2)cc1 | > 100 µM |
| COP(=O)(OC)c1ccc(NCc2cc(O)ccc2O)cc1 | 39.1 µM |
| O=[N+]([O-])c1ccc2nc(/C=C(\O)c3ccccc3)c(/C=C(\O)c3ccccc3)nc2c1 | > 100 µM |
| C/C(CC(=O)Nc1ccc(Cl)cc1)=N\NC(=O)C[n+]1ccccc1 | > 100 µM |
| O=c1cc(-c2ccccc2)[nH]c2c(Cl)cccc12 | > 100 µM |
